Reported self-cleavage is given for each of the following variants.
B1: Hairpin Ribozyme (parent)
chain: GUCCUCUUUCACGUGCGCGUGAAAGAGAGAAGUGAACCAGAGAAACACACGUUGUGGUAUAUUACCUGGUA

- Variants of: B1
- assay_text: self-cleavage, relative activity (ratio to wild type); higher = more cleavage; co-transcriptional
// print number alone

• GUCCUCUUUCACGUGCGCAUGAAAGAGAGAAGUGAACCAGAGAAACACACGUUGUGGUAUAUUACCUGGAA = 0.599

// next entry
I would be grateful if you could share the reported self-cleavage for `GUCCUCUUUCACGUGCUCGUGAAAGAGAGAAGUGAACCAGAGAAACACACGUUGUGGUAUAUUAGCUGGUA` . 0.269
